- SYSTEM_NAME: T1, MUC1 peptide (15 aa+cystein, APDTRPAPGSTAPPAC) (human)
- T1 construct: If the listing entry has only 15 residues, a C-terminal Cys must be added; Immobilized on the SPR chip; also called synthetic MUC1 peptide
- T1 peptide: APDTRPAPGSTAPPAC
- TEST_NAME: SPR, scFv 2-200 nM over immobilized MUC1 peptide, Chip 1 (47 RU)
EXPERIMENTAL_ENDPOINT: Ka (M⁻¹)
Numbers only; they are read as M⁻¹.

Examples from the recorded data:
State the recorded Ka for this entry: HT200-3A-C1 scFv (scFv, scFv as VH-truncated CH1-linker-VL-truncated CL, made in the E. coli periplasm and purified by its His-tag; not shown: C-terminal His-tag used for purification and detection) scFv: QMQLVQSGAEVKKPGASVKVSCKASGYTFTGHYMHWVRQAPGQGLEWMGWIDPVTGGTKYAQNFQGWVTMTRDTSIRTAYMELSRLRSDDTAMYYCAREVTGDRGQFDKWGQGTLVTVASASTKGPSAKLEEGEFSEARVQSVLTQPPSVSMAPGETARITCGGNNIGSKSVHWYQQKPGQAPVLVIYNDSDRPSGIPERFSGSNSGKTATLTISRVEAGDEADYYCQVWDSSIDWVFGGGTKLTVLGQPKAAPSVTLFPPS 4.8e+08

Also check HT220-M-D1 scFv (scFv, scFv as VH-truncated CH1-linker-VL-truncated CL, made in the E. coli periplasm and purified by its His-tag; not shown: C-terminal His-tag used for purification and detection) scFv: QMLLVQSGAEAKKPGASVKVSCKASGYTFTGHYMHWVRQAPGQGLEWMGWIDPVTGGTKYAQNFQGWVTMTRDTSIRTAYMELSRLRPDDTAMYYCAREVTGDRGQFDKWGQGTLVTVASASTKGPSVKLEEGEFSEARVQSVLTQPPSVSVVPGKTARIICGGNNIGSKSVHWYQQKPGQAPVLVIYNNSDRPSGIPERFSGSNSGNMATLTISRVEAGDESDYYCQVWDSSSDWVFGGGTRLTILGQSKAAPSVTLFPPS 2.8e+08

New cases:
Ka lookup needed for HT186-G2 scFv (scFv, scFv as VH-truncated CH1-linker-VL-truncated CL, made in the E. coli periplasm and purified by its His-tag; not shown: C-terminal His-tag used for purification and detection) scFv: RMQLVQSGAEVKKPGASVKLSCKASGYTFAGHYMHWVRQAPGRGLEWMGWIDPVTGGTKYAQNFQGWVTMTRDTSIRTAYMELSRLRSDDTAMYYCAREVTGDRGQFDKWGQGTLVTVASASTKGPSVKLEEGKFLEAHVQSVLTQPPSVSVAPGKTARITCGGNNIGSKSVHWYQQKPGQAPVLVIYYGSDRSSGIPERFSGSNSGNTATLTISRVEAGDEADYYCQVWDSSSDWVFGGGTKLTVLGQPKAAPSVTLFPPS , thanks. 1e+09
